For each record, write down the corresponding pIC50.
molecular target: Menin/Histone-lysine N-methyltransferase MLL (Homo sapiens, UniProt O00255+Q03164); experiment: Inhibition of menin (unknown origin)/MLL (unknown origin) protein-protein interaction by fluorescence polarization assay
Sequence (O00255 whole entry): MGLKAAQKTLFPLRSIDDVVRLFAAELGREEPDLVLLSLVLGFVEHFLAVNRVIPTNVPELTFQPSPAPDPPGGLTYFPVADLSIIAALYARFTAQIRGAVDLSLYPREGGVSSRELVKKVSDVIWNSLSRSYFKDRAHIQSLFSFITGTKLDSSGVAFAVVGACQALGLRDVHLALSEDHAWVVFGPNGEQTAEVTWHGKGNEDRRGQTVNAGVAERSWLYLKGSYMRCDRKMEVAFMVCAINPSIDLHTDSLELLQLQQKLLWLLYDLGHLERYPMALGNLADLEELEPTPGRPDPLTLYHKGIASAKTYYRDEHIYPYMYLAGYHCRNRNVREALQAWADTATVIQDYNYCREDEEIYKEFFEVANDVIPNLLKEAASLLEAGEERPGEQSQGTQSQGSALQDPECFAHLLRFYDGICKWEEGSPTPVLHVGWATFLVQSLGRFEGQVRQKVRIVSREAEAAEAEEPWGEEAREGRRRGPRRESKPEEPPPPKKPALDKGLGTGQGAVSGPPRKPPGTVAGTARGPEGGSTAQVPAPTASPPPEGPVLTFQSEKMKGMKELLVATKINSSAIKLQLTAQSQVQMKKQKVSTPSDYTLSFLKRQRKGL
Sequence (Q03164 1-2718 limits assumed): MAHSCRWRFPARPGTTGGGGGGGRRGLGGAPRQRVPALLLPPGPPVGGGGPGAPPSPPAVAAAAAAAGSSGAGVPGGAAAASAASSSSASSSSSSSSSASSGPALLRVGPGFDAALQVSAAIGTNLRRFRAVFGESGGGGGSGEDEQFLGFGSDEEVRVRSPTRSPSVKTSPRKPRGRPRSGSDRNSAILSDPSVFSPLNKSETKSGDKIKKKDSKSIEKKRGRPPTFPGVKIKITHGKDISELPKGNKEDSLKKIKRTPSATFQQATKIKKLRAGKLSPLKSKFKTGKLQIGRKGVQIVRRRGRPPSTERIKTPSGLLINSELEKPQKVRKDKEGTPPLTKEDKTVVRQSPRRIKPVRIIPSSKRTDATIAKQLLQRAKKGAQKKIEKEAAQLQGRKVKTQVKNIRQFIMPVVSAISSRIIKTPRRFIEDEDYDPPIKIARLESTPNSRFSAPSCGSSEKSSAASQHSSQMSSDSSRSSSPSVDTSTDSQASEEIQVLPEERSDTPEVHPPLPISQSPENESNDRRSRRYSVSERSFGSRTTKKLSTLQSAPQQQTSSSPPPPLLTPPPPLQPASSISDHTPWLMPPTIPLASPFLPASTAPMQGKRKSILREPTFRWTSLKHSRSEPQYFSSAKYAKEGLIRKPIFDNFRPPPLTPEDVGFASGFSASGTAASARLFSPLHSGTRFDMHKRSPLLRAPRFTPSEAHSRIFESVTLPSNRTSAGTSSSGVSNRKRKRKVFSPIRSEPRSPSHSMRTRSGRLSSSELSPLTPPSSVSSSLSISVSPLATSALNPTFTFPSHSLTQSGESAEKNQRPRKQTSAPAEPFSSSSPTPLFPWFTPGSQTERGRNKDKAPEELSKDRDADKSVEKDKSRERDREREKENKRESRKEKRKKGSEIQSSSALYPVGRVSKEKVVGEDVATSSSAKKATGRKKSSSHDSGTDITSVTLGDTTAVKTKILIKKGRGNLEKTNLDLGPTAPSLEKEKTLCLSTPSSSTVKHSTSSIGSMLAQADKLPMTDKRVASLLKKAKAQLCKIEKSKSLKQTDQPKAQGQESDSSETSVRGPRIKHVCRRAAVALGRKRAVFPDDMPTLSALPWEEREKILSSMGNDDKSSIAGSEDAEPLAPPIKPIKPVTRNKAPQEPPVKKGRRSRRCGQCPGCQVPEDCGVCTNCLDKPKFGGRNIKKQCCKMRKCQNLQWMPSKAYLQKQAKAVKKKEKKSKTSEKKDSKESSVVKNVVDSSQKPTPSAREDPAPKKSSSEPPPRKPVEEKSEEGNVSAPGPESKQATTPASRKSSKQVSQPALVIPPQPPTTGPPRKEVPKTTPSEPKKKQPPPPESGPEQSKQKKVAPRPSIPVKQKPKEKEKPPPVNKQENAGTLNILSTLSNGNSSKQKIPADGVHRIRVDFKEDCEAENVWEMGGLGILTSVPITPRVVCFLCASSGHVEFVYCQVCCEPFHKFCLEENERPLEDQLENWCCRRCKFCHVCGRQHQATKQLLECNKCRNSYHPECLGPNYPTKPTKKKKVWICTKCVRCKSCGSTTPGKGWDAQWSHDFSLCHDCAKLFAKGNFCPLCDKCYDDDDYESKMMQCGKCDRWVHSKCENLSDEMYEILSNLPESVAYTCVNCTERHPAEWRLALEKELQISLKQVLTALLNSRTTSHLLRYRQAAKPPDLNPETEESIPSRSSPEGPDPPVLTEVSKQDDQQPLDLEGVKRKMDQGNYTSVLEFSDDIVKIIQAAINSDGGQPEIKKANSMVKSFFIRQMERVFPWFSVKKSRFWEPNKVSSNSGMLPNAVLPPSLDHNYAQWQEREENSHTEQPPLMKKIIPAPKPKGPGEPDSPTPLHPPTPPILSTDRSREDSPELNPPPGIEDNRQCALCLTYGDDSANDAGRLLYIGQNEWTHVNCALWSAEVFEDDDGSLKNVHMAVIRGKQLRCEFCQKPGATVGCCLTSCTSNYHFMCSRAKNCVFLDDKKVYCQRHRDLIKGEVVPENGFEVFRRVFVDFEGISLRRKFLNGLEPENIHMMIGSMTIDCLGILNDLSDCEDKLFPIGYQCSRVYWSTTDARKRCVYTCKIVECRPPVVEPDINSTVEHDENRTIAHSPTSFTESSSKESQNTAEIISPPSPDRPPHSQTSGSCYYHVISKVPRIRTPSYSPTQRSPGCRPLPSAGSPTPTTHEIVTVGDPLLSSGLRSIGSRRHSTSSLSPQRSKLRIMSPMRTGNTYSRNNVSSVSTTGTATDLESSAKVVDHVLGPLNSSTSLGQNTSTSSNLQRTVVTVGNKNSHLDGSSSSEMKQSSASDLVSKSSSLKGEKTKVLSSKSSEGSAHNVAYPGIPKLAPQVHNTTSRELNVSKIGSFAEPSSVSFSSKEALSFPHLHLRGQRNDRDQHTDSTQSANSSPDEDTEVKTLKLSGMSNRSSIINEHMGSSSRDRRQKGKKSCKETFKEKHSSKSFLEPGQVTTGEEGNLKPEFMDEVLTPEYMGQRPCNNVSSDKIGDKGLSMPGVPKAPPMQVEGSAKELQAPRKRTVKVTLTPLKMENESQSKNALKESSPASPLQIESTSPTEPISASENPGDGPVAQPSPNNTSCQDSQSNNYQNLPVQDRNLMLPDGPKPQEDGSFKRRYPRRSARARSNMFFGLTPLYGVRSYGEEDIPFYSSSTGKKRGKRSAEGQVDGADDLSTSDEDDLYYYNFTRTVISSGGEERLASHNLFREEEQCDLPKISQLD
Sequence (Q03164 2719-3969 limits assumed): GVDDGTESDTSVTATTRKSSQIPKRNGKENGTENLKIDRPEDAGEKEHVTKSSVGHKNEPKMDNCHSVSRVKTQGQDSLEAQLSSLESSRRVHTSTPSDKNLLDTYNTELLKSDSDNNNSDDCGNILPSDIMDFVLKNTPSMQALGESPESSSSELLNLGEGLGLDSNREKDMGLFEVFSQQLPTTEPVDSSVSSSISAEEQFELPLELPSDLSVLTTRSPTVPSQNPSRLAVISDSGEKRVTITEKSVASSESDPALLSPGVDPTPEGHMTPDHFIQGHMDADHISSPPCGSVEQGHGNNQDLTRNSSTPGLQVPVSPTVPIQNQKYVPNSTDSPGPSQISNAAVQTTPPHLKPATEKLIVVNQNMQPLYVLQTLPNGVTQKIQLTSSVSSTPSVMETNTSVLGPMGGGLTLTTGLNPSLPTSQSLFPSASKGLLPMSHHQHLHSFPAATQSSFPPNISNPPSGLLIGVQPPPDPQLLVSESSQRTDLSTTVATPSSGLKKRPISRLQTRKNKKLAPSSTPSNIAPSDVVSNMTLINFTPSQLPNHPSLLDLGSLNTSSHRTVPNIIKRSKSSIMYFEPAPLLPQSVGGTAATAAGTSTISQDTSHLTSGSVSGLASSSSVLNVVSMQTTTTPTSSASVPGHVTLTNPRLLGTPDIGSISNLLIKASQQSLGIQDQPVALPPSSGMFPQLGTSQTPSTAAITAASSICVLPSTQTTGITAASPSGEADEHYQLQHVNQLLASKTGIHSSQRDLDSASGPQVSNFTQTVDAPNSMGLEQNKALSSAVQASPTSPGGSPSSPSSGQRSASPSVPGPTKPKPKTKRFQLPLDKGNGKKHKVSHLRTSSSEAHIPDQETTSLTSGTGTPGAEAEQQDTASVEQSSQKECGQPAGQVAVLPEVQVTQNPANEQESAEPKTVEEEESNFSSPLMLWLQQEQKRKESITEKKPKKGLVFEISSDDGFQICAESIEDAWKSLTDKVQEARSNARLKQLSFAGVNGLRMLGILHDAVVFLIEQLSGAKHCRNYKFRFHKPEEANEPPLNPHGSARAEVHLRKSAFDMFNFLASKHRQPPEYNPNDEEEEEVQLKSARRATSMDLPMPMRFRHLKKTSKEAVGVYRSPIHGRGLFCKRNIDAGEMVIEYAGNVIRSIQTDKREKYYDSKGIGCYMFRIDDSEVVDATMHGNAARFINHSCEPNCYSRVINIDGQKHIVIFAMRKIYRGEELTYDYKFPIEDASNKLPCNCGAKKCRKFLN
Please treat pIC50 as minus the base-10 logarithm of the molar concentration.

Task item: Any idea what its pIC50 is? The compound is "COC(=O)N[C@H]1CCC[C@@H]1[C@](C#N)(c1cccc(F)c1)C1CCN(CC2CN(c3ccc(S(=O)(=O)C4CCC4)cc3)C2)CC1"
Reply: 8.15

Task item: Any idea what its pIC50 is? The compound is "COC(=O)N[C@H]1CCC[C@@H]1[C@](C#N)(c1cccc(F)c1)C1CCN(CC2CN(c3ccc(S(=O)(=O)C4CN(C(=O)/C=C/CN(C)C)C4)cc3)C2)CC1"
Reply: 8.52

====

molecular target: Histone-lysine N-methyltransferase EZH2 (Homo sapiens)
outcome.measure: IC50 (nM)
Just the number in nM, nothing appended.

Task item: Any idea what its IC50 is? The compound is "C=CC(=O)Nc1cc(-c2ccc(N3CCNCC3)cc2)cc(C(=O)NCc2c(CC)cc(C)[nH]c2=O)c1C"
Reply: 47
